Target: hCB1R C1.55(139)S (Homo sapiens, UniProt P21554, C139S)
Sequence (P21554 whole entry C139S): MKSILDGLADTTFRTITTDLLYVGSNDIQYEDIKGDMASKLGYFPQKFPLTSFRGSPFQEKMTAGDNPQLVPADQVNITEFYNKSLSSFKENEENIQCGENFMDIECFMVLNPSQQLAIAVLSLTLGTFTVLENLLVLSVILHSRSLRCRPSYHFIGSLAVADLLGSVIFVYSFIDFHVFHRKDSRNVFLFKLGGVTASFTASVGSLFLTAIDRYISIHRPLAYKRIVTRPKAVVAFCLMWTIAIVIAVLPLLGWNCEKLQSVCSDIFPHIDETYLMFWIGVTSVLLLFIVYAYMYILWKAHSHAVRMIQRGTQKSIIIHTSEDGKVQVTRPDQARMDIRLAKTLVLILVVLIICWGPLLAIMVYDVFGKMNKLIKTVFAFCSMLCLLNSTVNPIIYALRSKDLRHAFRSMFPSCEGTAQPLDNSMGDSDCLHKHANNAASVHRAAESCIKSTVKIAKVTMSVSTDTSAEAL
Assay: Competition binding with [^3H]CP55,940, Flp-In-293 membranes
Details: read-out: apparent Ki (95% CI); C1.55(139)S mutant; [^3H]CP55,940 0.75 nM
RECORDED_ENDPOINT: Ki

Per the reported hCB1R C1.55(139)S (Homo sapiens, UniProt P21554, C139S) data, O=C(CCC/C=C\C/C=C\C/C=C\C/C=C\CCCCCN=C=S)NC1CC1 [AM3677] has Ki of 2.3 nM
